Data provenance: paper PMC6980506

# assayName: Single dose pharmacokinetic study in beagle dog
# Format: in vivo
# experimentalContext: male, beagle, plasma, iv; Dog, 0.5 mg kg^−1 i.v., mean ± SD, n=3
reportedMetric: AUC(0-t)

Query: What value of AUC(0-t) has been recorded for this entry: Cc1cc(C(=O)O)nc(N2C[C@H]3C[C@@H](c4ccccc4C(F)(F)F)C[C@H]3C2)n1
Response: 10300 ng·h/mL

---

# assayName: Single dose pharmacokinetic study in cynomolgus monkey
# Type: in vivo
# experimentalContext: male, cynomolgus monkey, plasma, iv, 1 mg/kg, non-human primate, iv 1.0 mg/kg, 0.5 hr; read-out: Plasma level, Mean
reportedMetric: concentration at 0.5 hr (ng/mL)
Field format: number, assumed ng/mL, no unit text.

Query: Item Cc1cc(C(=O)O)nc(N2C[C@H]3C[C@@H](c4ccccc4C(F)(F)F)C[C@H]3C2)n1 has what recorded concentration at 0.5 hr?
Response: 9570

---

# assayName: Single dose pharmacokinetic study in cynomolgus monkey
# Assay type: in vivo
# experimentalContext: male, cynomolgus monkey, plasma, po, 5 mg/kg, non-human primate, po 5 mg/kg, 8 hr; read-out: Plasma level, Mean
reportedMetric: concentration at 8 h (ng/mL)
# number only, unit ng/mL dropped from output

Query: Which concentration at 8 h value is on record for Cc1cc(C(=O)O)nc(N2C[C@H]3C[C@@H](c4ccccc4C(F)(F)F)C[C@H]3C2)n1 ?
Response: 23900

---

# assayName: Single dose pharmacokinetic study in cynomolgus monkey
# Assay type: in vivo
# experimentalContext: male, cynomolgus monkey, plasma, iv; Cyno, 1.0 mg kg^−1 i.v., mean ± SD, n=3; read-out: Vss, volume of distribution at steady state
reportedMetric: Vd (L/kg)
Return type: number; implicit unit L/kg.

Query: Return reported Vd; argument: Cc1cc(C(=O)O)nc(N2C[C@H]3C[C@@H](c4ccccc4C(F)(F)F)C[C@H]3C2)n1
Response: 0.113

---

# assayName: Single dose pharmacokinetic study in cynomolgus monkey
# Format: in vivo
# experimentalContext: male, cynomolgus monkey, plasma, iv, 1 mg/kg, non-human primate, iv 1.0 mg/kg, 2 hr; read-out: Plasma level, Mean
reportedMetric: concentration at 2 hr (µg/mL)
Give the value, in units of µg/mL, as a plain number.

Query: Find the recorded concentration at 2 hr belonging to Cc1cc(C(=O)O)nc(N2C[C@H]3C[C@@H](c4ccccc4C(F)(F)F)C[C@H]3C2)n1 [BPN-14136] and report it.
Response: 8.08

---

# assayName: Single dose pharmacokinetic study in cynomolgus monkey
# Assay type: in vivo
# experimentalContext: male, cynomolgus monkey, plasma, po, 5 mg/kg, non-human primate, po 5 mg/kg, 6 hr; read-out: Plasma level, Individual animals
reportedMetric: concentration at 6 hr (ng/mL)
Report the figure in ng/mL without appending any unit label.

Query: For Cc1cc(C(=O)O)nc(N2C[C@H]3C[C@@H](c4ccccc4C(F)(F)F)C[C@H]3C2)n1 , what is its reported concentration at 6 hr?
Response: 26700

---

# assayName: Single dose pharmacokinetic study in beagle dog
# Assay type: in vivo
# experimentalContext: male, beagle, dog, plasma, iv, 0.5 mg/kg, male beagle dog, iv 0.5 mg/kg, 36 hr; read-out: Plasma level, Mean
reportedMetric: concentration at 36 h (ng/mL)
Supply the numeric figure in ng/mL, leaving out any unit text.

Query: Query (compound): Cc1cc(C(=O)O)nc(N2C[C@H]3C[C@@H](c4ccccc4C(F)(F)F)C[C@H]3C2)n1 ; field requested: concentration at 36 h
Response: 41

---

# assayName: Single dose pharmacokinetic study in cynomolgus monkey
# Format: in vivo
# experimentalContext: male, cynomolgus monkey, plasma, po, 5 mg/kg, non-human primate, po 5 mg/kg, 1 hr; read-out: Plasma level, Mean
reportedMetric: concentration at 1 hr (ng/mL)
// return numeric value only (unit: ng/mL, not printed)

Query: Any idea what concentration at 1 hr was measured for Cc1cc(C(=O)O)nc(N2C[C@H]3C[C@@H](c4ccccc4C(F)(F)F)C[C@H]3C2)n1 ?
Response: 29800

---

# assayName: Single dose pharmacokinetic study in beagle dog
# Type: in vivo
# experimentalContext: male, beagle, dog, plasma, po, 2 mg/kg, male beagle dog, po 2 mg/kg, 2 hr; read-out: Plasma level, Individual animals
reportedMetric: concentration at 2 h (ng/mL)
Output spec: scalar in ng/mL, unitless text.

Query: Data request, read-out concentration at 2 h, for Cc1cc(C(=O)O)nc(N2C[C@H]3C[C@@H](c4ccccc4C(F)(F)F)C[C@H]3C2)n1
Response: 3600

---

# assayName: Metabolic clearance in human hepatocytes
# Type: in vitro ADME
# experimentalContext: cryopreserved hepatocytes, read-out: Hepatocyte CLint (intrinsic clearance)
reportedMetric: hepatocyte CLint at 1 μM

Query: Quick one: hepatocyte CLint at 1 μM for Cc1cc(C(=O)O)nc(N2C[C@H]3C[C@@H](c4ccccc4C(F)(F)F)C[C@H]3C2)n1 ?
Response: < 0.7 µL/min/1e6 cells

---

# assayName: Single dose pharmacokinetic study in beagle dog
# Assay type: in vivo
# experimentalContext: male, beagle, dog, plasma, po, 2 mg/kg, male beagle dog, po 2 mg/kg, 0.25 hr; read-out: Plasma level, Mean
reportedMetric: concentration at 0.25 h (ng/mL)
Numbers only here, please. The scale is ng/mL.

Query: Which concentration at 0.25 h is listed for Cc1cc(C(=O)O)nc(N2C[C@H]3C[C@@H](c4ccccc4C(F)(F)F)C[C@H]3C2)n1 [BPN-14136] ?
Response: 7090

---

# assayName: Single dose pharmacokinetic study in cynomolgus monkey
# Assay type: in vivo
# experimentalContext: male, cynomolgus monkey, plasma, iv, 1 mg/kg, non-human primate, iv 1.0 mg/kg, 12 hr; read-out: Plasma level, Mean
reportedMetric: concentration at 12 hr (ng/mL)
The answer is to be given in ng/mL; state only the numeric part.

Query: Would you mind telling me what concentration at 12 hr value was observed for Cc1cc(C(=O)O)nc(N2C[C@H]3C[C@@H](c4ccccc4C(F)(F)F)C[C@H]3C2)n1 [BPN-14136] ?
Response: 4780

---

# assayName: Metabolic clearance in dog hepatocytes
# Type: in vitro ADME
# experimentalContext: male, beagle, cryopreserved hepatocytes, read-out: Hepatocyte CLint (intrinsic clearance)
reportedMetric: hepatocyte CLint at 1 μM

Query: Could you tell me which hepatocyte CLint at 1 μM is on file for Cc1cc(C(=O)O)nc(N2C[C@H]3C[C@@H](c4ccccc4C(F)(F)F)C[C@H]3C2)n1 ?
Response: < 0.7 µL/min/1e6 cells

---

# assayName: Single dose pharmacokinetic study in beagle dog
# Format: in vivo
# experimentalContext: male, beagle, plasma, po; Dog, 2.0 mg kg^−1 p.o., mean ± SD, n=3; read-out: T1/2, apparent terminal half-life (converted)
reportedMetric: half-life (h)
The reply should contain only the number, in h.

Query: Recorded half-life for Cc1cc(C(=O)O)nc(N2C[C@H]3C[C@@H](c4ccccc4C(F)(F)F)C[C@H]3C2)n1 [BPN-14136] , please?
Response: 2.9

---

# assayName: Single dose pharmacokinetic study in beagle dog
# Type: in vivo
# experimentalContext: male, beagle, dog, plasma, po, 2 mg/kg, male beagle dog, po 2 mg/kg, 0.5 hr; read-out: Plasma level, Mean
reportedMetric: concentration at 0.5 h (ng/mL)
Write down the numeric answer in ng/mL and omit the unit.

Query: What value of concentration at 0.5 h has been reported for the following compound? Cc1cc(C(=O)O)nc(N2C[C@H]3C[C@@H](c4ccccc4C(F)(F)F)C[C@H]3C2)n1 [BPN-14136]
Response: 6720

---

# assayName: Single dose pharmacokinetic study in beagle dog
# Assay type: in vivo
# experimentalContext: male, beagle, dog, plasma, iv, 0.5 mg/kg, male beagle dog, iv 0.5 mg/kg, 0.5 hr; read-out: Plasma level, Mean
reportedMetric: concentration at 0.5 h (ng/mL)
Value expressed in ng/mL; do not type the unit.

Query: What does the data say about its concentration at 0.5 h? Entry: Cc1cc(C(=O)O)nc(N2C[C@H]3C[C@@H](c4ccccc4C(F)(F)F)C[C@H]3C2)n1
Response: 1770

---

# assayName: Single dose pharmacokinetic study in beagle dog
# Type: in vivo
# experimentalContext: male, beagle, dog, plasma, iv, 0.5 mg/kg, male beagle dog, iv 0.5 mg/kg, 24 hr; read-out: Plasma level, Individual animals
reportedMetric: concentration at 24 h (ng/mL)
Express it in ng/mL; write the number only.

Query: Please report the recorded concentration at 24 h for Cc1cc(C(=O)O)nc(N2C[C@H]3C[C@@H](c4ccccc4C(F)(F)F)C[C@H]3C2)n1 [BPN-14136] .
Response: 169

---

# assayName: Single dose pharmacokinetic study in cynomolgus monkey
# Assay type: in vivo
# experimentalContext: male, cynomolgus monkey, plasma, po, 5 mg/kg, Cyno, 5.0 mg kg^−1 p.o., mean ± SD, n=3; read-out: Cmax
reportedMetric: Cmax

Query: Query (compound): Cc1cc(C(=O)O)nc(N2C[C@H]3C[C@@H](c4ccccc4C(F)(F)F)C[C@H]3C2)n1 ; field requested: Cmax
Response: 31400 ng/mL
